Values were extracted from patent US11026944B2.

experiment: Multiple ascending dose study (002 Study): plasma PK; type: in vivo, human; conditions: human, plasma, oral, 50 mg, 50-mg dose; read-out: effective half-life based on accumulation (converted)
Assay Metric: half-life (h)
State just the number; it will be interpreted in h.

So what does the record say about half-life for Cc1ncc(OC[C@@]2(c3cccc(F)c3)C[C@H]2C(=O)Nc2ccc(F)cn2)c(C)n1 ?
28

----------
experiment: Crossover study of relative bioavailability of tablet versus capsule (005 Study): plasma PK; type: in vivo, human; settings: human, plasma, po, 25 mg, single oral 25 mg Tablet, healthy adults; read-out: AUC(0-inf) Mean(SD)
Assay Metric: AUC(0-inf) (ng·h/mL)
State just the number; it will be interpreted in ng·h/mL.

So what does the record say about AUC(0-inf) for Cc1ncc(OC[C@@]2(c3cccc(F)c3)C[C@H]2C(=O)Nc2ccc(F)cn2)c(C)n1 ?
1100

----------
assay: Crossover study of relative bioavailability of tablet versus capsule (005 Study): plasma PK; format: in vivo, human; conditions: human, plasma, po, 10 mg, single oral 10 mg Tablet, healthy adults; read-out: t1/2 Mean(SD) (converted)
Assay Metric: half-life
Put down the number, then write its unit next to it.

So what does the record say about half-life for Cc1ncc(OC[C@@]2(c3cccc(F)c3)C[C@H]2C(=O)Nc2ccc(F)cn2)c(C)n1 [Compound A] ?
59.5 h

----------
assay: Single dose study (001 Study) Part A: plasma PK of compound A; format: in vivo; settings: human, plasma, po, 1 mg, single oral 1 mg, healthy subjects (Part A); read-out: AUC(0-24) Mean(SD)
Assay Metric: AUC from 0 to 24 h

So what does the record say about AUC from 0 to 24 h for Cc1ncc(OC[C@@]2(c3cccc(F)c3)C[C@H]2C(=O)Nc2ccc(F)cn2)c(C)n1 [Compound A] ?
~17.2 ng·h/mL

----------
assay: Single dose study (001 Study) Part A: plasma PK of compound A; assay type: in vivo; details: human; plasma at 9 h after single oral 100 mg, healthy subjects (Part A); read-out: C9 Mean(SD)
Assay Metric: concentration at 9 h
Put down the number, then write its unit next to it.

So what does the record say about concentration at 9 h for Cc1ncc(OC[C@@]2(c3cccc(F)c3)C[C@H]2C(=O)Nc2ccc(F)cn2)c(C)n1 ?
86 ng/mL

----------
experiment: Multiple ascending dose study (002 Study): plasma PK; format: in vivo, human; details: human, plasma, oral, 5 mg, Day 14, 5 mg once daily for 14 days; read-out: t1/2 Mean(SD) (converted)
Assay Metric: half-life

So what does the record say about half-life for Cc1ncc(OC[C@@]2(c3cccc(F)c3)C[C@H]2C(=O)Nc2ccc(F)cn2)c(C)n1 [Compound A] ?
~2760 min

----------
assay: Crossover study of relative bioavailability of tablet versus capsule (005 Study): plasma PK; type: in vivo, human; conditions: human, plasma, po, 10 mg, single oral 10 mg Tablet, healthy adults; read-out: AUC(0-8) Mean(SD)
Assay Metric: AUC(0-t) (ng·h/mL)
State just the number; it will be interpreted in ng·h/mL.

So what does the record say about AUC(0-t) for Cc1ncc(OC[C@@]2(c3cccc(F)c3)C[C@H]2C(=O)Nc2ccc(F)cn2)c(C)n1 [Compound A] ?
178

----------
assay: Single dose study (001 Study) Part A: plasma PK of compound A; assay type: in vivo; conditions: human, plasma, po, 100 mg, single oral 100 mg, healthy subjects (Part A); read-out: AUC(0-t) Mean(SD)
Assay Metric: AUC(0-t) (ng·h/mL)
State just the number; it will be interpreted in ng·h/mL.

So what does the record say about AUC(0-t) for Cc1ncc(OC[C@@]2(c3cccc(F)c3)C[C@H]2C(=O)Nc2ccc(F)cn2)c(C)n1 ?
4490
